Test system: IGROV1 ovarian
EXPERIMENTAL_DETAILS: NCI-60 one-dose screen, 48 h (100 = growth as untreated, 0 = no growth, -100 = all killed)
STATED_CONDITIONS: 10 µM unless noted
Procedure: Growth inhibition of the IGROV1 human tumor cell line is measured as a screen for anti-cancer activity. Cells are grown in 96 well plates and exposed to the test compound for 48 hours. Compounds are tested at a single concentration, which is 10^-5 M for most compounds. The reported endpoint is percent growth (GI% or GIPRCNT), where numbers from 0 - 100% represent growth inhibition, and numbers from -100% - 0 represent cell death. For example, a value of 40 represents 60% growth inhibition. […]
About 83,000 compounds went through this panel and 20% of them were active in at least one assay; those are over-represented in the sample as a whole.
With a cut-off of 40%, any growth strictly below it is called T; any growth meeting it or above is called F.

COMPOUND | SYSTEM_UNDER_TEST | CLASSIFICATION
CCOC(=O)c1cc(C(=O)OCC)c(C)nc1C | IGROV1 ovarian | F
O=C(NNC(=O)c1cccc(Cl)c1)c1ccccc1 | IGROV1 ovarian | F
S=C(Nc1ccc(Cl)cc1)Nc1ccc(Cl)cc1 (tested in a mixture with another compound) | IGROV1 ovarian | T
CCNCCCn1c2c(c3ccc(Cl)cc3c1=O)C(=O)c1cc(OC)cnc1-2 | IGROV1 ovarian | F
CCN(CC)c1ccc(/C=C2/NC(=O)NC2=O)cc1 | IGROV1 ovarian | F

Now, please, on to the next compound.
Item O=C(Nc1ccc(-n2ccc3c(NC(=O)c4ccccc4)nccc32)cc1)c1ccc(N2CCOCC2)c(C(F)(F)F)c1 : growth beneath 40%, strictly?
T
